Tested on: MALME-3M melanoma
Test: NCI tumour cell line growth inhibition, 48 h
Where a SMILES comes first, the peptide text is derived from it. [ ]: non-standard residue; d: D form. The star is where a group is joined. Phe(4-NO2) = N[CH](Cc1ccc([N+](=O)[O-])cc1)C(=O)O; Cbz = O=C(OCc1ccccc1)*
property: TGI

| compound | assay target | TGI |
| --- | --- | --- |
| CCOC(=O)CCC(NC(=O)OCc1ccccc1)C(=O)NC(CCC(=O)OCC)C(=O)NC(CCC(=O)OCC)C(=O)NC(CCC(=O)OCC)C(=O)NC(CCC(=O)OCC)C(=O)NC(Cc1ccc([N+](=O)[O-])cc1)C(=O)NC(CCC(=O)OCC)C(=O)NC(CCC(=O)OCC)C(=O)NC(CCC(=O)OCC)C(=O)NC(CCC(=O)OCC)C(=O)NC(CCC(=O)OCC)C(=O)OCC (configuration not stated) (Cbz-E(OEt)E(OEt)E(OEt)E(OEt)E(OEt)[Phe(4-NO2)]E(OEt)E(OEt)E(OEt)E(OEt)E(OEt)-OEt; configuration not given here) | MALME-3M melanoma | > 50 µM |

Now turn to the next compound.
# TGI measured on MALME-3M melanoma for item CC(C)(C)C1CC[C@H](O)[C@H]([C@@H](O)CC2CC(=O)N(c3ccccc3)C(=O)C2)C1 (some centres not stated) = > 100 µM

* * *

Tested on: LOX IMVI melanoma
Test: NCI tumour cell line growth inhibition, 48 h
property: TGI (µM)
Please reply with the bare figure in µM and do not write the unit itself.

Examples with answers:
| compound | property | value observed |
| --- | --- | --- |
| COC(=O)N1C=CC2=C(C)C3Nc4ccccc4C3C(C)=C2C1 (centres undefined) | TGI | 20.1 |
| O=C1c2ccccc2-n2c1nc1ccc([N+](=O)[O-])cc1c2=O | TGI | 51.7 |
| Cc1nc2ccccc2c(/C=C/c2ccc(F)cc2)c1C(=O)/C=C/c1ccccc1 | TGI | 3.11 |
| CCOC(=O)c1c(C)n(Cc2ccc(Cl)cc2Cl)c2c1cc(O)c1[nH]c(Cc3ccccc3)nc12 | TGI | 3.66 |
| C=C1C(=O)OC2/C=C(CO)/C=C\C3OC3(C)CC(OC(=O)/C(C)=C/COC(C)=O)C12 (centres undefined) | TGI | 3.05 |

The compound listed as CN(C)Cc1c[nH]c2nc[nH]c(=O)c12 shows TGI equal to 40.9

Measured TGI of COc1ccc(C(=O)c2no[n+]([O-])c2C(=O)c2ccc(OC)cc2)cc1 : 2.53

# TGI (compound: O=C1C=CC2(C=C1)O[C@H](CCc1ccccc1)[C@@H](CCc1ccccc1)O2 ) is 27.3

The compound listed as COc1ccc(C(=O)c2[nH]c(Nc3cc(C)ccn3)c(C(=S)Nc3ccccc3)c2N)cc1 shows TGI equal to 42.2

TGI reading for O=C(NCCc1nccs1)c1cnc2c(S)cccc2c1 : 92.8

response.value for CC(=O)OC1C(C)OC(Oc2c(-c3ccc(O)cc3)oc3cc(O)cc(O)c3c2=O)C(O)C1OC(C)=O (centres undefined) (field: TGI) = 50.2

Note to self: TGI recorded for CC[n+]1c(/C=C/c2cc(C(=O)OC)n3c2sc2ccccc23)sc2ccccc21 was 40.5

Lab note: O=C1c2c[n+](Cc3ccccc3)ccc2-c2nc3ccccc3c3ccnc1c23 gave TGI of 2.02

O=[N+]([O-])c1cc2c(ccc3ccccc32)o1 has a reported TGI of 0.487

Value of TGI reported for the compound C(#Cc1ccccc1C#Cc1cnccn1)c1cnccn1 is 53.4

O=C(OCc1ccccc1)N1N=NC2C3CC(OCc4ccccc4)(OCc4ccccc4)C(O3)C21 (centres undefined) has a reported TGI of 42.8

Lab book: TGI of CC12CC(Br)(Br)C(=O)C3C1CCCC32 noted as 7.67

// sample O=C(Nc1cccc2[nH]c(C(F)(F)F)nc12)c1ccc(Br)cc1F , its TGI was 12.5

Briefly, TGI measured for CC1=NN(c2ccccc2Cl)C2(C1)C(Cl)C(=O)N2c1nc2ccccc2s1 (centres undefined) : 33.7

* * *

Tested on: SK-MEL-2 melanoma
Assay: NCI tumour cell line growth inhibition, 48 h
property: TGI

| compound | value observed |
| --- | --- |
| O=C(c1ccsc1)c1nccc2c1cnc1ccccc12 | > 100 µM |
| COc1ccc(-n2c(C)nc3ccc(NC4OCC(OC(C)=O)C(OC(C)=O)C4OC(C)=O)cc3c2=O)cc1 (stereo unspecified) | > 100 µM |
| CCOC(=O)c1ccc(N[C@@H]2c3cc4c(cc3C(c3cc(OC)c(O)c(OC)c3)[C@H]3C(=O)OCC32)OCO4)cc1 (stereo partly specified) | 6.27 µM |
| CC1=NN(c2ccccc2Cl)C2(C1)C(Cl)C(=O)N2c1nc2ccccc2s1 (stereo unspecified) | > 100 µM |
| Nc1ncnc2c1ncn2C1(CO)OC(CO)C(O)C1O (stereo unspecified) | > 100 µM |
| O=[N+]([O-])/C(C(Cl)=C(Cl)Cl)=C(\NCc1ccccc1)Sc1ccccc1 | 84.7 µM |

Case COc1cc2c(/C=C3/C(=O)Nc4cc(C)c(O)cc43)c(Cl)[nH]c2cc1C , SK-MEL-2 melanoma, TGI recorded as 23.9 µM

Field TGI (system: SK-MEL-2 melanoma) for entry Nc1nc2cc(COc3ccc(C(=O)O)cc3)ccc2nc1-c1ccccc1 = > 10 µM

* * *

Test system: SK-MEL-28 melanoma
Test: NCI tumour cell line growth inhibition, 48 h
Parameter TGI: see the listing below.

Use the examples below as a reference point.
| molecule | value observed |
| --- | --- |
| O=C(NCCc1nccs1)c1cnc2c(S)cccc2c1 | > 100 µM |
| COC(=O)c1ccc(C)cc1C1CN=NC12Cc1c(C)cccc1C2=O (stereo unspecified) | > 100 µM |
| CCOC(=O)C(c1ccsc1)P(=O)(OCC)OCC (stereo unspecified) | 32.4 µM |
| C[C@H]1CCC/C=C/[C@@H]2C[C@H](O)C[C@H]2[C@H](O)C(O)C(O)C(=O)O1 (stereo partly specified) | > 100 µM |
| CN(C)/C=N/S(=O)(=O)c1nn2c(C=O)c(-c3ccc(-c4ccccc4)cc3)nc2s1 | 4.33 µM |

// TGI lookup, molecule = NNC(=O)c1cc(Cl)ccc1NC(=O)C12CC3CC(CC(C3)C1)C2 , result: > 100 µM

* * *

Listed below: TGI values for each entry.
System: DMS 114 small cell lung
Assay: NCI tumour cell line growth inhibition, 48 h

| compound | assay target | TGI |
| --- | --- | --- |
| C=Cc1c(-c2ccccc2)cnc2[nH]c3ccccc3c12 | DMS 114 small cell lung | > 50 µM |
| CC12CC(Br)(Br)C(=O)C3C1CCCC32 | DMS 114 small cell lung | 16.2 µM |
| C=CCN=C1NC(=O)C(CC(=O)Nc2ccc([N+](=O)[O-])cc2[N+](=O)[O-])S1 (stereo not given) | DMS 114 small cell lung | > 100 µM |

Lab book: TGI of O=C(O)C(Cc1ccc(O)cc1)N=Cc1nc(-c2ccccc2)oc1O (stereo not given) noted as > 100 µM

Entry under test: Oc1ccc(Br)cc1C=Nc1ccc(Oc2ccc(N=Cc3cc(Br)ccc3O)cc2)cc1 . Its TGI was > 19.6 µM

* * *

System: SR leukemia
Assay: NCI tumour cell line growth inhibition, 48 h; in the data active means GI50 below about 0.43 µM; inactive means the rest
Just give me one of these, please: active, inactive

These solved cases illustrate the format of a correct answer.
| molecule | assay target | class name |
| --- | --- | --- |
| COC(=O)c1cc2c3cc(Cl)ccc3[nH]c2c2ncccc12 | SR leukemia | inactive |
| Nc1ncnc2occ(-c3ccc(NC(=O)Nc4cccc(C(F)(F)F)c4)cc3)c12 | SR leukemia | inactive |
| CCc1n(Cc2ccc3ccccc3c2)cc[n+]1Cc1ccc2ccccc2c1 | SR leukemia | inactive |

Dear colleague, could you share the recorded outcome for CCOC(=O)c1ccc(N[C@@H]2c3cc4c(cc3C(c3cc(OC)c(O)c(OC)c3)[C@H]3C(=O)OCC32)OCO4)cc1 (stereo not given in full) when you have a moment?
active

For CC1=C(C(=O)Nc2cc(F)c(F)cc2F)C(c2ccc(N(C)C)cc2)C(C(=O)Nc2cc(F)c(F)cc2F)=C(C)N1 , what call appears in the results of this test?
inactive

* * *

Test system: MALME-3M melanoma
Assay: NCI tumour cell line growth inhibition, 48 h
property: TGI (µM)
Answer format: numeric, µM implied, no suffix.

Example results:
| molecule | assay target | value observed |
| --- | --- | --- |
| Cc1nc2ccccc2c(/C=C/c2ccc(C(F)(F)F)cc2)c1C(=O)/C=C/c1ccccc1 | MALME-3M melanoma | 3.02 |
| COc1ccc(-c2c(C#N)c(N)nc(Sc3ccccc3N)c2C#N)cc1 | MALME-3M melanoma | 42.4 |
| CCOC(=O)c1ccc(N[C@@H]2c3cc4c(cc3C(c3cc(OC)c(O)c(OC)c3)[C@H]3C(=O)OCC32)OCO4)cc1 (stereo partly drawn) | MALME-3M melanoma | 2.95 |
| CN(COC(=O)C(C)(C)C)c1nc(N(C)COC(=O)C(C)(C)C)nc(N(C)COC(=O)C(C)(C)C)n1 | MALME-3M melanoma | 98.5 |
| Cc1cc(N)c2cc(NC(=O)/C=C\c3ccccc3Cl)ccc2n1 | MALME-3M melanoma | 3.89 |

We next turn to a different molecule, shown below.
# molecule CC(C)OC(=O)NNc1c(Cl)cc(Cl)cc1Cl ; its TGI = 74.2
